Tested on: A549
ASSAY_METHOD_TEXT: NCI tumour cell line growth inhibition, 48 h
Active and inactive are the calls of the source. No stated cut-off is given here; in the data, active = GI50 up to about 1.1 µM and inactive = higher.
REPORTED_PROPERTY: GI50

Example cases with answers are listed next.
COMPOUND: O=C(CCc1ccc(O)c(O)c1)NCCc1cc(O)c(O)c(O)c1
TESTED_ON: A549
GI50: 22.5 µM (inactive)
//
COMPOUND: Cc1cccc(Nc2nc(NNC(=O)Cc3ccccc3)nc(NNC(=O)c3ccncc3)n2)c1
TESTED_ON: A549
GI50: > 10 µM (inactive)
//
COMPOUND: COc1ccc2c(c1)[n+]([O-])c(/C(C)=N/NC(=O)c1ccccc1O)c(C)[n+]2[O-]
TESTED_ON: A549
GI50: > 100 µM (inactive)
//
COMPOUND: CCOC(=O)C(C)(C)Oc1ccc(Cl)cc1 [CLOFIBRATE]
TESTED_ON: A549
GI50: 432 µM (inactive)
//
COMPOUND: CN1CCN(c2ccc3nc(-c4cc(O)c5c(nc(CO)n5C)c4O)[nH]c3n2)CC1
TESTED_ON: A549
GI50: 69.2 µM (inactive)

Look up GI50 for this compound: CCOC(=O)C[C@@H]1C2(C=C[C@@]13CO3)OCC(C)(C)CO2
> 100 µM (inactive)

Param item: COC1(OC)C2(Cl)C(Cl)=C(Cl)C1(Cl)C1C2C2CC1(C(=O)O)c1ccccc12 (stereo not given)
28.1 µM (inactive)

Next up: CC(C)c1ccc(C2C3=C(N=C4SCC(=O)N42)C(=O)c2ccccc23)cc1 (stereo not given)
58.9 µM (inactive)

Also O=C1CSC(=O)/C1=C\NNc1nc2ccccc2o1 ?
27.7 µM (inactive)

Another compound to check: CC1=CCCC(C)(O)C2CC(CCC3(C)OC3CC1)C(C)C(=O)O2 (stereo not given)
> 100 µM (inactive)

* * *

Tested on: BT-549
ASSAY_METHOD_TEXT: NCI tumour cell line growth inhibition, 48 h
Active and inactive are the calls of the source. Rule as the data show it: active = GI50 up to about 1.1 µM and inactive = higher.
REPORTED_PROPERTY: GI50

MOLECULE: O=C1c2c(Cl)c(Cl)c(Cl)c(Cl)c2C(=O)N1CCN(c1c(Cl)ssc1=O)c1c(Cl)ssc1=O
GI50: 30.9 µM (inactive)

MOLECULE: CCCCCC(CO)C(O)(C(F)(F)F)C(F)(F)F (stereo unspecified)
GI50: > 10 µM (inactive)

MOLECULE: O=S1(=O)c2cnccc2N=C(NCc2ccccc2)N1c1ccccc1
GI50: > 100 µM (inactive)

MOLECULE: CC(O)/C=C/C1OC(=O)CC1Nc1ccc(C=O)cc1 (stereo unspecified)
GI50: > 100 µM (inactive)

If you can, please state the reported GI50 value of O=c1[nH][nH]c(=O)n1Cc1ccccc1 .
> 100 µM (inactive)

Next up: CC(=O)Nc1ccc2c(c1)/C(=C\c1ccc([N+](C)(C)C)cc1)c1ccccc1-2
34.3 µM (inactive)

* * *

Tested on: RPMI-8226
ASSAY_METHOD_TEXT: NCI tumour cell line growth inhibition, 48 h
Active and inactive are the calls of the source. Rule as the data show it: active = GI50 up to about 1.1 µM and inactive = higher.
REPORTED_PROPERTY: GI50

COMPOUND: N#C/C(=C/c1ccc([N+](=O)[O-])o1)c1ccccc1
TESTED_ON: RPMI-8226
GI50: > 100 µM (inactive)
//
COMPOUND: N#Cc1c2c(c(Nc3cccc(C(F)(F)F)c3)n3c1nc1ccccc13)CCC2
TESTED_ON: RPMI-8226
GI50: > 100 µM (inactive)
//
COMPOUND: CC(C)Cn1cnc2c(SCc3ccc(Cl)cc3Cl)nc(N)nc21
TESTED_ON: RPMI-8226
GI50: 10.1 µM (inactive)
//
COMPOUND: CC(C)CC(=O)NS(=O)(=O)c1ccccc1
TESTED_ON: RPMI-8226
GI50: > 100 µM (inactive)
//
COMPOUND: CSc1nc2c(ncn2C2OCC(O)C(O)C2O)c(=O)n1C (stereo not given)
TESTED_ON: RPMI-8226
GI50: > 100 µM (inactive)
//
COMPOUND: C[C@@H](c1ccccc1)N(CC#N)C1CCC[C@H]1O (stereo not given in full)
TESTED_ON: RPMI-8226
GI50: > 100 µM (inactive)

Field: next compound
GI50 lookup needed for NCCNC(=S)S , thanks.
24.9 µM (inactive)

* * *

Tested on: RXF 393
ASSAY_METHOD_TEXT: NCI tumour cell line growth inhibition, 48 h
Calls of active or inactive are those of the source. Cut-off read from the data, not from the text of the source: active = GI50 up to about 1.1 µM and inactive = higher.
Reply using exactly one outcome from TRUE for active, FALSE for inactive

Use the examples below as a reference point.
COMPOUND: C/C(=N/NC(N)=S)c1ccc[nH]1
CATEGORY: FALSE
--
COMPOUND: Cc1c(O)c(OC2OC(CO)C(O)C(O)C2O)cc2c1C=C[C@@H]1[C@@]2(C)C(=O)C[C@]2(C)[C@@H]([C@@](C)(O)C(O)/C=C/C(C)(C)O)[C@H](O)C[C@@]12C (stereo partly drawn)
CATEGORY: FALSE
--
COMPOUND: COc1cc(CCCl)c(CC2=NCCc3cc(OC)c(OC)cc32)cc1OC
CATEGORY: FALSE
--
COMPOUND: O=C(O)CC(CC(=O)O)C(=O)O [TRICARBALLYLIC ACID]
CATEGORY: FALSE

Dear all, I need the recorded test outcome for COc1ccc2c(=O)c3ccoc3n(CC=C(C)C)c2c1 [ACROPHYLLINE] , thank you.
FALSE

Same thing, different compound: CN1C2C=C(c3ccccc3)CC1CC2 (stereo not drawn)
FALSE

* * *

System: HOP-62
ASSAY_METHOD_TEXT: NCI tumour cell line growth inhibition, 48 h
Where a name gives a salt, the structure may show the parent alone. Calls of active or inactive are those of the source. Cut-off read from the data, not from the text of the source: active = GI50 up to about 1.1 µM and inactive = higher.
Answer with one of the outcomes given here: y for active, n for inactive

// below: answered compounds
COMPOUND: CCCCCN1C(=O)C(Cc2ccccc2)N=C(c2ccc(O)cc2)c2cc(Cl)ccc21 (stereo unspecified)
CATEGORY: n
//
COMPOUND: COc1cccc(-c2cc(O)c3c(C)ccnc3n2)c1
CATEGORY: y
//
COMPOUND: Cc1cc(Cl)ccc1NC(=O)CCCC(=O)C1C/C(=N/O)CC/C1=N\O (stereo unspecified)
CATEGORY: n
//
COMPOUND: CN(C)CCOC(c1ccccc1)c1ccccc1 [DIPHENHYDRAMINE HYDROCHLORIDE]
CATEGORY: n
//
COMPOUND: C[C@H](N)C(=O)Nc1ccc(-c2nc3ccccc3s2)cc1
CATEGORY: n

Which outcome did this test record for the compound NNC(=O)C(O)C(O)C(O)CO (stereo unspecified) ?
n

Next: C(/Cc1ccc2c(c1)OCO2)=N\N=C1NCCCCN1
n

Okay, and Cc1cccc(NS(=O)(=O)c2ccc(/N=N/c3c(O)c(C(=O)O)cc4ccccc34)cc2)n1 ?
n

Also check Cc1ccccc1-n1c(CCl)nc2ccc(Br)cc2c1=O
n

What do we get for COc1cc2c(c(OC)c1OC)C(=O)[C@@H]1[C@H]2N1C(=O)NCCCl ?
n

* * *

System: SF-539
ASSAY_METHOD_TEXT: NCI tumour cell line growth inhibition, 48 h
The source made the active and inactive calls. No stated cut-off is given here; in the data, active = GI50 up to about 1.1 µM and inactive = higher.
Answer with one of the outcomes 1 (yes) for active, 0 (no) for inactive

Study these solved cases before continuing.
MOLECULE: O=C1NC(c2cccc3ccccc23)Nc2ccc(Cl)cc21 (stereo unspecified)
CATEGORY: 1 (yes)

MOLECULE: O=C(O)CC1OCC=C2CN3CCC45C6=CC(=O)C(O)=C([N+](=O)[O-])C6=NC4C1C2CC35 (stereo unspecified)
CATEGORY: 0 (no)

MOLECULE: COc1ccc([C@H]2CC(=O)N3CCCC3N2)cc1 (stereo partly specified)
CATEGORY: 0 (no)

MOLECULE: CCn1ncc2c1nc(-c1ccccc1)c[n+]2[O-]
CATEGORY: 0 (no)

Here is the next item to consider.
Entry CN(NC(=O)CCCl)C1=NCCCCN1 : call = ?
0 (no)

* * *

Tested on: COLO 205
ASSAY_METHOD_TEXT: NCI tumour cell line growth inhibition, 48 h
Calls of active or inactive are those of the source. Cut-off read from the data, not from the text of the source: active = GI50 up to about 1.1 µM and inactive = higher.
REPORTED_PROPERTY: GI50

# annotated cases, reported GI50 shown
QUERY_SMILES: N#C/C(=C/c1cccc(Oc2ccccc2)c1)c1ccccc1
MEASUREMENT: 55 µM (inactive)
--
QUERY_SMILES: CNC(=O)N(CCC#N)CCN(CCN(C(=O)NC)c1ccccc1)C(=O)NC
MEASUREMENT: > 100 µM (inactive)
--
QUERY_SMILES: C[N+](C)=c1nc(N2CCc3ccccc3C2)ss1.[O-][Cl+3]([O-])([O-])[O-]
MEASUREMENT: 42.8 µM (inactive)

Quick check: GI50 on COLO 205, item C#CC(C)(C)Oc1cc(O)c2c(=O)c3ccccc3n(C)c2c1 ?
> 100 µM (inactive)

Another compound to look at: COP(=O)(OC)[C@H](O)[C@H]1C[C@@H]1c1ccccc1
> 100 µM (inactive)
